# Test system: LOX IMVI melanoma
# assay_explanation: NCI tumour cell line growth inhibition, 48 h
We use 30 µM as the dividing line for TGI: on or above the line is true, below is false.

Some solved cases for reference:
molecule	study_target	class_name
CCOC(=O)C(Cl)(NC(=O)c1ccc(F)cc1)C(F)(F)F (stereo not drawn)	LOX IMVI melanoma	true
CC(=O)SCCC1c2[nH]c3ccccc3c2CCN1O (stereo not drawn)	LOX IMVI melanoma	true
Cn1c(=O)c2c(nc(NCCCCl)n2CC(=O)NCCCCl)n(C)c1=O	LOX IMVI melanoma	true
NC(N)=N/N=C/c1c(Cl)nc2sccn12	LOX IMVI melanoma	true
COc1cc(C(=O)O[C@H](C(N)=O)[C@]2(C)CO2)c2ccccc2c1	LOX IMVI melanoma	true
CCc1nc2ccccc2c(=O)n1/N=C(\N=Nc1ccc(Cl)cc1)c1ccccc1Cl	LOX IMVI melanoma	true
C=C1CC[C@@]2(OC1)OC1C[C@H]3[C@@H]4CC=C5C[C@@H](O)CC(OC6OCC(OC(=O)[C@@H](O)[C@@H](C)CC)C(OC(C)=O)C6OC6OC(C)C(O)C(O)C6O)[C@]5(C)[C@H]4CC[C@]3(C)C1[C@@H]2C (stereo partly drawn)	LOX IMVI melanoma	false
O=C(CCCSc1nc(-c2ccc(Cl)cc2)cc(-c2ccc(Cl)cc2)n1)NO	LOX IMVI melanoma	false

Threshold query (TGI >= 30 µM) on CCOC(=O)c1c(C)n(Cc2ccc(OC)cc2)c2c1cc(O)c1[nH]c3c(c12)CCCC3
false

Threshold query (TGI >= 30 µM) on COc1ccc(C2CC(=O)c3c(O)c(OC)c(OC)c(OC)c3O2)c(O)c1 (stereo not drawn)
false

Threshold query (TGI >= 30 µM) on COc1cc2c3c(n(CCCCl)c(=O)c2cc1OC)-c1ccccc1C3=O
true

Threshold query (TGI >= 30 µM) on Cc1cc(=O)[nH]c(NNC(C#N)c2ccc(O)cc2)n1 (stereo not drawn)
true

----------
Consider the following compounds; for each one, report its TGI.
# System: SK-MEL-28 melanoma
# assay_explanation: NCI tumour cell line growth inhibition, 48 h

Some compounds with known TGI results, for comparison:
compound	TGI
C[C@]12CC[C@@H]3c4ccc(Oc5nc(N6CC6)nc(N6CC6)n5)cc4CC[C@H]3[C@@H]1CCC2=O	42.8 µM
CCC(C)(O)c1cn(-c2cccc(S(=O)(=O)O)c2)nn1 (stereo unspecified)	> 100 µM
COC(=O)[C@]12CCC(C)(C)C[C@H]1C1=CC[C@@H]3[C@@]4(C)C/C(=C/c5cccnc5)C(=O)C(C)(C)[C@@H]4CC[C@@]3(C)[C@]1(C)CC2	20 µM
CCSc1nc(N2CCOCC2)c2cn[nH]c2n1	> 100 µM
COc1ccc(S(=O)(=O)N(Cc2ccc3c(n2)C=CC(C)(C)O3)C2CCC2)cc1OC	0.461 µM

Your task in this section: give TGI for each listed record.
1. N#C/C(C(=S)Nc1ccccc1)=C1/NN=C2c3ccccc3C(=O)NN21
2. COc1ccc(C2CC(=O)c3c(OC)cc(OC)cc3O2)cc1 (stereo unspecified)
3. Nc1nccc(-c2c(-c3ccc(F)cc3)ncn2CCCN2CCOCC2)n1
4. N#Cc1nc(COCCOCc2ccccc2)oc1N
5. CCOC(=O)c1c(SC(=O)/C=C/c2ccccc2)n(-c2ccccc2)c(=S)n(-c2ccccc2)c1=O

["97.7 µM", "> 100 µM", "> 25 µM", "> 100 µM", "> 100 µM"]

Data provenance: PubChem BioAssay (NCI)
